assayComment: Single ascending oral dose pharmacokinetics (part 1, plasma and urine, fasted)
Format: in vivo, human
conditionParameters: human, plasma, oral, cohort/dose B/70 mg, single dose, geometric mean (%CV)
readoutKind: AUC(0-t) (µg·h/mL)
Numeric only. Scale: µg·h/mL

I am curious: what AUC(0-t) value has been reported for Cn1cnc(Cn2c(=O)[nH]/c(=N\c3cc4cn(C)nc4cc3Cl)n(Cc3cc(F)c(F)cc3F)c2=O)n1 ?
289

---

assayComment: Single ascending oral dose pharmacokinetics (part 1, plasma and urine, fasted)
Format: in vivo, human
conditionParameters: human, plasma, oral, cohort/dose C/250 mg, single dose, geometric mean (%CV)
readoutKind: AUC(0-t)

Fill in the blank: the reported AUC(0-t) of Cn1cnc(Cn2c(=O)[nH]/c(=N\c3cc4cn(C)nc4cc3Cl)n(Cc3cc(F)c(F)cc3F)c2=O)n1 [Ensitrelvir, ensitrelvir fumaric acid] is ____.
907 µg·h/mL

---

assayComment: Effect of food on pharmacokinetics (cohort C, 250 mg crossover)
Format: in vivo, human
conditionParameters: human, plasma, oral, 250 mg, Cohort C/250 mg single dose, Fed; read-out: AUC0-last, GLS mean
readoutKind: AUC(0-t) (µg·h/mL)
Lab book: enter the figure in µg·h/mL, no units written.

What value of measured AUC(0-t) is listed for Cn1cnc(Cn2c(=O)[nH]/c(=N\c3cc4cn(C)nc4cc3Cl)n(Cc3cc(F)c(F)cc3F)c2=O)n1 ?
949

---

assayComment: Multiple-dose pharmacokinetics (part 2, cohorts F, G, H)
Type: in vivo, human
conditionParameters: human, plasma, oral, 375 mg, H/375/125 mg (white), Day 1, fasted; geometric mean (%CV); read-out: AUC0-τ
readoutKind: AUC (µg·h/mL)
The figure you give is taken to be in µg·h/mL; do not add the unit.

Report AUC for Cn1cnc(Cn2c(=O)[nH]/c(=N\c3cc4cn(C)nc4cc3Cl)n(Cc3cc(F)c(F)cc3F)c2=O)n1 please.
351

---

assayComment: Single ascending oral dose pharmacokinetics (part 1, plasma and urine, fasted)
Format: in vivo, human
conditionParameters: human, plasma, oral, cohort/dose B/70 mg, single dose, geometric mean (%CV), read-out: Vz/F
readoutKind: Vd/F (L)
Give the value, in units of L, as a plain number.

So what does the record say about Vd/F for Cn1cnc(Cn2c(=O)[nH]/c(=N\c3cc4cn(C)nc4cc3Cl)n(Cc3cc(F)c(F)cc3F)c2=O)n1 ?
15.9

---

assayComment: Single ascending oral dose pharmacokinetics (part 1, plasma and urine, fasted)
Format: in vivo, human
conditionParameters: human, plasma, oral, single dose 20 to 2,000 mg, range across dose groups, read-out: geometric mean terminal elimination half-life (t1/2,z)
readoutKind: half-life

Given the entry Cn1cnc(Cn2c(=O)[nH]/c(=N\c3cc4cn(C)nc4cc3Cl)n(Cc3cc(F)c(F)cc3F)c2=O)n1 , report its measured half-life.
42.2 to 48.1 h

---

assayComment: Multiple-dose pharmacokinetics (part 2, cohorts F, G, H)
Type: in vivo, human
conditionParameters: human, plasma, oral, H/375/125 mg (white), Day 5, fasted; median (min, max)
readoutKind: Tmax (h)
State the answer as a number, implicitly in h.

Return reported Tmax; argument: Cn1cnc(Cn2c(=O)[nH]/c(=N\c3cc4cn(C)nc4cc3Cl)n(Cc3cc(F)c(F)cc3F)c2=O)n1
1.5
